Target: HIV protease (Human immunodeficiency virus type 1 group M subtype B, UniProt P03366)
Construct: the predicted size of the protease is 99 amino acids
Assay: HIV protease inhibition, fluorometric RP-HPLC assay with N-dansyl-peptide substrate
Format: biochemical
Settings: Table I; NI = no inhibition at 10 μM final concentration; 37 °C, 40 min, pH 6.0; read-out: HIV Protease IC50 values of tested Examples
pIC50: −log10 of the molar value.
property.label: pIC50

Guide cases for pIC50, answers given:
# compound, pIC50
rows = [
    ("CC[C@H](C)[C@H](NC(=O)[C@@H]1CCCN1[C@H](CO)[C@H](CC(C)C)NC(=O)OCc1ccccc1)C(=O)NCc1ccccc1", 5.72),
    ("CC[C@H](C)[C@H](NC(=O)[C@@H]1CCCN1[C@H](C(=O)OC)[C@H](CC(C)C)NC(=O)OCc1ccccc1)C(=O)NCc1ccccc1", "< 5.00"),
    ("CC[C@H](C)[C@H](NC(=O)[C@@H]1CCCN1[C@H](CO)[C@H](CC(C)C)NC(=O)[C@H](CC(N)=O)NC(=O)c1ccc2ccccc2n1)C(=O)NCc1ccccc1", 7.46),
    ("CC[C@H](C)[C@H](NC(=O)[C@@H]1CCCN1[C@@H](C(=O)OC)[C@@H](CC(C)C)NC(=O)OCc1ccccc1)C(=O)NCc1ccccc1", "< 5.00"),
    ("CC[C@H](C)[C@H](NC(=O)[C@@H]1CCCN1[C@@H](C(=O)OC)[C@@H](CC(C)C)NC(=O)[C@H](CC(N)=O)NC(=O)c1ccc2ccccc2n1)C(=O)NCc1ccccc1", "< 5.00"),
]

Challenge: Identify measured pIC50 associated with CC[C@H](C)[C@H](NC(=O)[C@@H]1CCCN1[C@H](C(=O)OC)[C@H](CC(C)C)NC(=O)[C@H](CC#N)NC(=O)OCc1ccccc1)C(=O)NCc1ccccc1 [Example 11a]
Response given: < 5.00

Challenge: Supply recorded pIC50 for CC[C@H](C)[C@H](NC(=O)[C@@H]1CCCN1[C@H](CO)[C@H](CC(C)C)NC(=O)[C@H](CC(N)=O)NC(=O)OCc1ccccc1)C(=O)NCc1ccccc1 here.
Response given: 6.90

Challenge: Check the records and state pIC50 for CC[C@H](C)[C@H](NC(=O)[C@@H]1CCCN1[C@@H](CO)[C@@H](CC(C)C)NC(=O)OCc1ccccc1)C(=O)NCc1ccccc1
Response given: < 5.00
